Origin of the recorded values: patent US6054435A

MIC, Staphylococcus aureus A-5278: measured values

Take a look at these entries with their results.
smiles.data: CC[C@H]1OC(=O)[C@H](C)C(=O)[C@H](C)[C@@H](O[C@@H]2O[C@H](C)C[C@H](N(C)C)[C@H]2O)[C@](C)(OC/C=C/c2ccc3ncc(-c4ccco4)cc3c2)C[C@@H](C)C(=O)[C@H](C)[C@H]2NC(=O)O[C@@]21C
recorded.result: > 100 µg/mL

smiles.data: CC[C@H]1OC(=O)[C@H](C)C(=O)[C@H](C)[C@@H](O[C@@H]2O[C@H](C)C[C@H](N(C)C)[C@H]2O)[C@](C)(OCC#Cc2ccc(-c3cccc(OC)c3)s2)C[C@@H](C)C(=O)[C@H](C)[C@H]2NC(=O)O[C@@]21C
recorded.result: > 100 µg/mL

smiles.data: CC[C@H]1OC(=O)[C@H](C)C(=O)[C@H](C)[C@@H](O[C@@H]2O[C@H](C)C[C@H](N(C)C)[C@H]2O)[C@](C)(OC/C=C/c2cncc(-c3ccco3)c2)C[C@@H](C)C(=O)[C@H](C)[C@H]2NC(=O)O[C@@]21C
recorded.result: > 100 µg/mL

smiles.data: CC[C@H]1OC(=O)[C@H](C)C(=O)[C@H](C)[C@@H](O[C@@H]2O[C@H](C)C[C@H](N(C)C)[C@H]2O)[C@](C)(OC/C=C/c2ccc(-c3cccs3)s2)C[C@@H](C)C(=O)[C@H](C)[C@H]2NC(=O)O[C@@]21C
recorded.result: 50 µg/mL

smiles.data: CC[C@H]1OC(=O)[C@H](C)C(=O)[C@H](C)[C@@H](O[C@@H]2O[C@H](C)C[C@H](N(C)C)[C@H]2O)[C@](C)(OC/C=C/c2cncc(-c3ccsc3)c2)C[C@@H](C)C(=O)[C@H](C)[C@H]2NC(=O)O[C@@]21C
recorded.result: > 100 µg/mL

smiles.data: CC[C@H]1OC(=O)[C@H](C)C(=O)[C@H](C)[C@@H](O[C@@H]2O[C@H](C)C[C@H](N(C)C)[C@H]2O)[C@](C)(OC/C=C/c2cnc(-c3ncc(Br)s3)s2)C[C@@H](C)C(=O)[C@H](C)[C@H]2NC(=O)O[C@@]21C
recorded.result: 100 µg/mL

smiles.data: CC[C@H]1OC(=O)[C@H](C)C(=O)[C@H](C)[C@@H](O[C@@H]2O[C@H](C)C[C@H](N(C)C)[C@H]2O)[C@](C)(OCC#Cc2ccc(-c3cccc(C)c3)s2)C[C@@H](C)C(=O)[C@H](C)[C@H]2NC(=O)O[C@@]21C
recorded.result: 25 µg/mL

smiles.data: CC[C@H]1OC(=O)[C@H](C)C(=O)[C@H](C)[C@@H](O[C@@H]2O[C@H](C)C[C@H](N(C)C)[C@H]2O)[C@](C)(OCC#Cc2ccc(-c3ccccc3)s2)C[C@@H](C)C(=O)[C@H](C)[C@H]2NC(=O)O[C@@]21C
recorded.result: > 100 µg/mL

Ask: Param readout= MIC; system= Staphylococcus aureus A-5278; entry= CCOC(=O)c1cncc(-c2ccc(C#CCO[C@]3(C)C[C@@H](C)C(=O)[C@H](C)[C@H]4NC(=O)O[C@]4(C)[C@@H](CC)OC(=O)[C@H](C)C(=O)[C@H](C)[C@H]3O[C@@H]3O[C@H](C)C[C@H](N(C)C)[C@H]3O)s2)c1 ; returns value.
Result: > 100 µg/mL

Ask: MIC of CC[C@H]1OC(=O)[C@H](C)C(=O)[C@H](C)[C@@H](O[C@@H]2O[C@H](C)C[C@H](N(C)C)[C@H]2O)[C@](C)(OCC#Cc2ccc(-c3ccncc3)s2)C[C@@H](C)C(=O)[C@H](C)[C@H]2NC(=O)O[C@@]21C on Staphylococcus aureus A-5278?
Result: > 100 µg/mL

Ask: Return MIC measured with Staphylococcus aureus A-5278 given this compound: CC[C@H]1OC(=O)[C@H](C)C(=O)[C@H](C)[C@@H](O[C@@H]2O[C@H](C)C[C@H](N(C)C)[C@H]2O)[C@](C)(OC/C=C/c2cncc(-c3cncs3)c2)C[C@@H](C)C(=O)[C@H](C)[C@H]2NC(=O)O[C@@]21C
Result: > 100 µg/mL

Ask: Reported MIC for Staphylococcus aureus A-5278, given CC[C@H]1OC(=O)[C@H](C)C(=O)[C@H](C)[C@@H](O[C@@H]2O[C@H](C)C[C@H](N(C)C)[C@H]2O)[C@](C)(OCC#Cc2ccc(-c3cncc(C(N)=O)c3)s2)C[C@@H](C)C(=O)[C@H](C)[C@H]2NC(=O)O[C@@]21C ?
Result: > 100 µg/mL

Ask: Fill in the recorded MIC for this compound, with Staphylococcus aureus A-5278 as test system: CC[C@H]1OC(=O)[C@H](C)C(=O)[C@H](C)[C@@H](O[C@@H]2O[C@H](C)C[C@H](N(C)C)[C@H]2O)[C@](C)(OCC#Cc2ccc(-c3cccc(NC(C)=O)c3)s2)C[C@@H](C)C(=O)[C@H](C)[C@H]2NC(=O)O[C@@]21C
Result: > 100 µg/mL

Ask: Hi! What's the reported MIC for CC[C@H]1OC(=O)[C@H](C)C(=O)[C@H](C)[C@@H](O[C@@H]2O[C@H](C)C[C@H](N(C)C)[C@H]2O)[C@](C)(OC/C=C/c2cnc(-c3cncnc3)s2)C[C@@H](C)C(=O)[C@H](C)[C@H]2NC(=O)O[C@@]21C on Staphylococcus aureus A-5278?
Result: > 100 µg/mL

Ask: # query: MIC | item CC[C@H]1OC(=O)[C@H](C)C(=O)[C@H](C)[C@@H](O[C@@H]2O[C@H](C)C[C@H](N(C)C)[C@H]2O)[C@](C)(OC/C=C/c2cnc(-c3cccs3)s2)C[C@@H](C)C(=O)[C@H](C)[C@H]2NC(=O)O[C@@]21C | system: Staphylococcus aureus A-5278
Result: > 100 µg/mL

Ask: Form field: MIC recorded for CC[C@H]1OC(=O)[C@H](C)C(=O)[C@H](C)[C@@H](O[C@@H]2O[C@H](C)C[C@H](N(C)C)[C@H]2O)[C@](C)(OC/C=C/c2cncc(-c3ccccc3)c2)C[C@@H](C)C(=O)[C@H](C)[C@H]2NC(=O)O[C@@]21C with Staphylococcus aureus A-5278 (enter value)
Result: > 100 µg/mL
